- test_description: qHTS for Inhibitors of human tyrosyl-DNA phosphodiesterase 1 (TDP1): qHTS in cells in presence of CPT; also: nearly all actives have a fitted effect of over 55% in size
- condition_set: chicken DT40 Tdp1-/-;hTDP1 cells + 20 nM CPT, ATP luminescence, 48 h; series mostly up to 46.2 µM
The campaign covered roughly 420,000 compounds. About 50,000 (12%) were called active. Another 26% or so got no clear call; they are omitted. Calls follow the shape of the dose curve; as a rule, active = well fitted inhibition curve with a large enough effect; inconclusive = small, poorly fitted or top-dose-only effect; inactive = flat fitted curve, though single readings scatter. This excerpt belongs to a sample that is enriched for actives.
Classes used: active, inactive

>>> label("CCCc1cc(=O)[nH]c(SCC(=O)N2C(C)CCCC2C)n1 (configuration not stated)")
"inactive"
>>> label("CCCNC(=O)C1(C)CCN1C(=O)Cc1ccc(-c2ccccc2)cc1 (configuration not stated)")
"active"
>>> label("CCCN(CC(=O)Nc1ccc(OC)c(OC)c1)CC(=O)Nc1ccc(F)c(F)c1F")
"inactive"
>>> label("CSCCC(C(=O)NC1=NCCS1)N1C(=O)c2ccccc2C1=O (configuration not stated)")
"inactive"
>>> label("COc1cccc(N(CC(=O)NCc2ccccc2)C(=O)CCC(=O)Nc2nccs2)c1")
"inactive"
>>> label("O=C(Cc1ccccc1)Nc1c(Cl)ccc2nsnc12")
"inactive"
>>> label("Cc1ccc(S(=O)(=O)N2CC(O)C[C@H]2C(=O)OCC(=O)Nc2ccc(N3CCOCC3)cc2)cc1C (some centres not stated)")
"inactive"
>>> label("COc1ccccc1-c1nc(NCc2cccs2)c2ccccc2n1")
"active"
>>> label("COc1cc(N)c(Cl)cc1C(=O)OCC(=O)c1ccc2c(c1)NC(=O)CO2")
"inactive"
>>> label("COc1ccccc1-c1nc(NCCNC(C)=O)c2ccccc2n1")
"inactive"
>>> label("CC1(C(=O)NS(=O)(=O)c2ccccc2)CCN1C(=O)Cc1ccc(-c2ccccc2)cc1 (configuration not stated)")
"inactive"
>>> label("Cc1cccc(-n2c(SCC(=O)Nc3cccc(S(=O)(=O)NC4=NCCCCC4)c3)nc3ccccc3c2=O)c1C")
"active"

----------
- test_description: qHTS for Inhibitors of human tyrosyl-DNA phosphodiesterase 1 (TDP1): qHTS in cells in presence of CPT; also: nearly all actives have a fitted effect of over 55% in size
- condition_set: chicken DT40 Tdp1-/-;hTDP1 cells + 20 nM CPT, ATP luminescence, 48 h; series mostly up to 46.2 µM
The campaign covered roughly 420,000 compounds. About 50,000 (12%) were called active. About 26% were inconclusive and are not listed. Calls follow the shape of the dose curve; as a rule, active = well fitted inhibition curve with a large enough effect; inconclusive = small, poorly fitted or top-dose-only effect; inactive = flat fitted curve, though single readings scatter. This excerpt belongs to a sample that is enriched for actives.
Classes used: active, inactive

>>> label("COc1ccc(CCNC(=O)CSc2nnc3ccc(-c4ccncc4)nn23)cc1")
"inactive"
>>> label("O=C(NC(=S)Nc1ccc(Cl)cc1Cl)C1CC1")
"active"
>>> label("CCc1c(-c2ccc(F)cc2)ncn1Cc1cccc(-c2ccccc2)c1")
"active"
>>> label("CS(=O)(=O)Nc1ccc(C(=O)N2CCCC2)cc1")
"inactive"

----------
- test_description: qHTS for Inhibitors of human tyrosyl-DNA phosphodiesterase 1 (TDP1): qHTS in cells in presence of CPT; also: nearly all actives have a fitted effect of over 55% in size
- condition_set: chicken DT40 Tdp1-/-;hTDP1 cells + 20 nM CPT, ATP luminescence, 48 h; series mostly up to 46.2 µM
Out of some 420,000 compounds screened, about 50,000 (12%) were called active. About 26% were inconclusive and are not listed. Calls come from the whole dose curve; as a rule, active = well fitted inhibition curve with a large enough effect; inconclusive = small, poorly fitted or top-dose-only effect; inactive = flat fitted curve, though single readings scatter. The sample as a whole holds a higher share of actives than the screen did.
Classes used: y for active, n for inactive

>>> label("O=C(OCc1cn(-c2ccc(Cl)c(Cl)c2)nn1)c1ccccc1Cl")
"n"
>>> label("Nc1cc(C(=O)N2CCN(c3ccccc3Cl)CC2)ccc1N1CC2CC(C1)c1cccc(=O)n1C2 (configuration not stated)")
"n"
>>> label("Cc1cnc(CNc2ncncc2-c2ccccc2Cl)cn1")
"n"
>>> label("COc1ccc(-c2n[nH]c(C)c2-c2ccc(OC)c(OC)c2)c(O)c1")
"y"
>>> label("Cc1ccccc1/C=C\\c1nc(O)c([N+](=O)[O-])c(=O)[nH]1")
"n"
>>> label("CC1=CC(C)(C)NC(=S)N1NC(=O)c1ccccc1Cl")
"n"
>>> label("COc1ccc2c(c1)C(NS(=O)(=O)OCC(Cl)(Cl)Cl)CCC2 (configuration not stated)")
"n"
>>> label("CN(CCOc1ccccc1)C(=O)c1cc(COc2c(F)cccc2F)on1")
"n"
>>> label("CC1=CC(C)(C)NC(=S)N1c1ccccc1")
"y"
>>> label("COc1ccc(-c2c(-c3ccc(OC)cc3O)nc(C)nc2C(F)(F)F)cc1")
"n"
>>> label("COc1ccc(CCNC(=O)Cn2c(=O)n(-c3ccccc3)c(=O)c3c(C)c(C)sc32)cc1OC")
"n"
>>> label("CCOc1cc(/C=C(\\C#N)c2nc(-c3cccs3)c(NC(C)=O)s2)ccc1O")
"y"

----------
- test_description: qHTS for Inhibitors of human tyrosyl-DNA phosphodiesterase 1 (TDP1): qHTS in cells in presence of CPT; also: nearly all actives have a fitted effect of over 55% in size
- condition_set: chicken DT40 Tdp1-/-;hTDP1 cells + 20 nM CPT, ATP luminescence, 48 h; series mostly up to 46.2 µM
The campaign covered roughly 420,000 compounds. About 50,000 (12%) were called active. Another 26% or so got no clear call; they are omitted. Calls come from the whole dose curve; as a rule, active = well fitted inhibition curve with a large enough effect; inconclusive = small, poorly fitted or top-dose-only effect; inactive = flat fitted curve, though single readings scatter. This excerpt belongs to a sample that is enriched for actives.
Classes used: active, inactive

>>> label("Cc1nn(Cc2ccccc2)c(C)c1C(=O)N1CCN(CC(=O)Nc2ccccc2Cl)CC1")
"active"
>>> label("O=C(COC(=O)CSc1ccccc1)Nc1ccc(F)cc1F")
"inactive"
>>> label("O=C(CSC1CC(=O)N(CCc2ccccc2)C1=O)Nc1ccc(Cl)cc1 (centres undefined)")
"inactive"
>>> label("O=[N+]([O-])c1ccc(N2CCN(CC(O)COc3ccccc3)CC2)cc1 (centres undefined)")
"active"
>>> label("O=S(=O)(c1ccc(OCC(O)CN2CCN(c3ccccc3Cl)CC2)cc1)N1CCOCC1 (centres undefined)")
"active"
>>> label("CCCCN1C(=O)C(CC(=O)NC(c2ccccc2)c2ccccc2)CC(C(=O)N2CCOCC2)=C1C (centres undefined)")
"inactive"
>>> label("O=C(CSc1nnc(Cn2cnc3ccccc32)o1)c1ccccc1")
"active"
>>> label("N#CCc1ccc(NC(=O)c2ccccc2C(=O)Nc2ccc(CC#N)cc2)cc1")
"inactive"
>>> label("CC(=O)Nc1ccc(OCC(O)CN2CCN(c3ccccc3Cl)CC2)cc1 (centres undefined)")
"inactive"
>>> label("CCOC(=O)c1cc2c(=O)n3ccccc3nc2n(CCCOC)c1=NC(=O)C(C)Oc1ccccc1 (centres undefined)")
"inactive"
>>> label("COc1cccc(N(C(=O)CNC(=O)c2ccco2)C(C(=O)NC2CCCCC2)c2cccnc2)c1 (centres undefined)")
"inactive"
>>> label("Cc1cc(C)cc(NC(=O)NC2CCN(CC(=O)Nc3cccc(Cl)c3C)CC2)c1")
"inactive"
>>> label("COc1ccc(C(=O)NC(C)Cn2nc(C)cc2C)cc1OC1CCN(C(C)=O)CC1 (centres undefined)")
"inactive"
>>> label("OC(COc1ccccc1)CN1CCN(c2cccc(Cl)c2)CC1 (centres undefined)")
"inactive"

----------
- test_description: qHTS for Inhibitors of human tyrosyl-DNA phosphodiesterase 1 (TDP1): qHTS in cells in presence of CPT; also: nearly all actives have a fitted effect of over 55% in size
- condition_set: chicken DT40 Tdp1-/-;hTDP1 cells + 20 nM CPT, ATP luminescence, 48 h; series mostly up to 46.2 µM
The campaign covered roughly 420,000 compounds. About 50,000 (12%) were called active. Inconclusive results (about 26%) are left out. Calls follow the shape of the dose curve; as a rule, active = well fitted inhibition curve with a large enough effect; inconclusive = small, poorly fitted or top-dose-only effect; inactive = flat fitted curve, though single readings scatter. For the sample, actives were picked, then their nearest neighbours and some compounds at random.
Classes used: yes (1) = active, no (0) = inactive

>>> label("COC(=O)c1ccc(/C=N/NC(=O)C(=O)N2CCCCCC2)cc1")
"no (0)"
>>> label("Cc1sc2ncn(CC(=O)NCCCC(=O)NCc3ccc(F)cc3)c(=O)c2c1C")
"no (0)"
>>> label("CCN(CC)CCn1c(/N=C/c2cc(Br)ccc2O)nc2ccccc21")
"no (0)"
>>> label("COc1cc2c(cc1OC)C(COc1ccc(F)cc1)N(C(=O)c1ccccc1F)CC2 (stereo unspecified)")
"yes (1)"
>>> label("CC1CCN(C(=O)Cn2cc(C(=O)c3ccco3)c3ccccc32)CC1")
"no (0)"
>>> label("Cc1ccccc1NC(=O)Cn1cc(C(=O)C2CC2)c2ccccc21")
"no (0)"

----------
- test_description: qHTS for Inhibitors of human tyrosyl-DNA phosphodiesterase 1 (TDP1): qHTS in cells in presence of CPT; also: nearly all actives have a fitted effect of over 55% in size
- condition_set: chicken DT40 Tdp1-/-;hTDP1 cells + 20 nM CPT, ATP luminescence, 48 h; series mostly up to 46.2 µM
Out of some 420,000 compounds screened, about 50,000 (12%) were called active. Inconclusive results (about 26%) are left out. Calls follow the shape of the dose curve; as a rule, active = well fitted inhibition curve with a large enough effect; inconclusive = small, poorly fitted or top-dose-only effect; inactive = flat fitted curve, though single readings scatter. What follows is part of a selection rich in actives, with near analogues and random picks from the rest.
Classes used: 1 for active, -1 for inactive

>>> label("Cc1ccnc(Nc2nc3ccccc3s2)n1")
-1
>>> label("CC(C)CCNC(=O)CCNS(=O)(=O)c1ccc(Cl)cc1")
-1
>>> label("COc1ccc(CN2CN(C(C)C)CSC2=S)cc1")
1
>>> label("Cc1cc(C)cc(C(=O)NC2C(=O)N3C(C(=O)O)=C(CSc4nnc(C)s4)CSC23)c1 (configuration not stated)")
-1
>>> label("Cc1nc2ccccc2nc(=O)c1NNc1ccc([N+](=O)[O-])cc1")
-1
>>> label("CC(C#N)OC(=O)c1cccnc1SCC(=O)Nc1ccc2c(c1)OCO2 (configuration not stated)")
-1
>>> label("CN(Cc1c(F)cccc1Cl)C(=O)COC(=O)Cn1cnc2ccccc2c1=O")
-1
>>> label("Cc1cc(-c2ccc(C)c(S(=O)(=O)NC(C)Cc3ccco3)c2)on1 (configuration not stated)")
-1
>>> label("O=C1/C(=C/c2ccc3c(c2)OCO3)CCC/C1=C\\c1ccc2c(c1)OCO2")
-1
>>> label("O=C(Nc1ccc(F)cc1)C1CCCN(S(=O)(=O)c2ccc(-n3cnnn3)cc2)C1 (configuration not stated)")
-1
>>> label("CC[C@H](C)[C@@H](C(=O)N1CCNCC1)n1cc([C@@H](N)Cc2ccc(O)cc2)nn1")
-1
>>> label("COC(=O)C1CC2=C(CC(C)(C)CC2=O)N(c2ccccc2)C1=O (configuration not stated)")
-1
>>> label("Cc1n[nH]c(C)c1S(=O)(=O)N1CCCC(C(=O)Nc2ccc(Br)cc2)C1 (configuration not stated)")
-1
>>> label("COc1ccc(CCNC(=O)C2CCCN(S(=O)(=O)c3ccc(OC)cc3)C2)cc1 (configuration not stated)")
-1
>>> label("CCc1ccc(NC(=O)c2cc(S(=O)(=O)N3CCCC(C)C3)cn2C)cc1 (configuration not stated)")
-1
>>> label("CCC(C)C(=O)Nc1cc([N+](=O)[O-])ccc1Cl (configuration not stated)")
-1
>>> label("COc1ccccc1N1CCN(S(=O)(=O)c2ccc3c(c2)NC(=O)CS3)CC1")
-1
>>> label("COc1cc(C2C3C(=O)N(c4ccccc4)C(=O)C3ON2c2ccccc2)ccc1O (configuration not stated)")
-1
>>> label("Cc1ccnc(SCC(N)=O)n1")
-1
>>> label("COc1ccc(Cn2c(=O)cc(C)[nH]c2=S)cc1")
-1
>>> label("CC(Oc1cccc(NC(=O)c2cccs2)c1)C(=O)c1ccccc1 (configuration not stated)")
-1
>>> label("O=C(Nc1ccc(S(=O)(=O)N2CCCCC2)cc1)c1cnccn1")
-1
>>> label("COc1ccc(CCNC(=O)COC(=O)C2CCCCC2)cc1")
-1
>>> label("CCc1ccccc1NC(=O)CN(C)C(=O)c1cc(C2CC2)nn1-c1ccccc1")
-1
>>> label("COc1ccc(CN2CC(C(=O)NC3CCCCC3)CC2=O)cc1 (configuration not stated)")
-1
>>> label("N=C1c2ccccc2-c2ccccc21")
-1
>>> label("CCN(CC(=O)NCc1ccco1)S(=O)(=O)c1ccc(F)cc1")
-1
>>> label("CCCn1nnnc1NCc1ccc(CC)cc1")
-1
>>> label("O=C1CSc2ccc(S(=O)(=O)NCc3ccccc3)cc2N1")
-1
>>> label("CC1(C)CC(=O)C=C(N2CCOCC2)C1")
-1
>>> label("Fc1cccc(Cc2noc(CN3CCN(c4cnccn4)CC3)n2)c1")
-1
>>> label("CC(C)c1nc(CNC(=O)CC2C(=O)NCCN2Cc2cccc(F)c2F)cs1 (configuration not stated)")
-1
